- target.or.test.system: T1, Monomeric 8-histidine tagged human EGFRvIII extracellular domain (human, UniProt P00533 298-645)
- T1 construct: Analyte in all SPR assays; not shown: 8-histidine tag
- method.summary: SPR, scFv-Fc captured by anti-human Fc, 37 C
# Kd values compiled below

{"binder": "26B9.HL scFv-Fc protein (Fc fusion, HL: heavy-chain variable domain at the N-terminus; not shown: human IgG1 Fc moiety) EVQLVESWGVLVKPGGSLRLSCAASGFIFNNAWMSWVRQAPGKGLEWIGRIKSKSDGGTTDYAAPVKDRFTISRDDSKDTLYLQMNGLKTEDTAVYFCTTAPGGPFDYWGQGTLVTVSSGGGGSGGGGSGGGGSGGGGSDIVLTQSPLSLPVTPGEPASISCRSSQSLLHRDGFNYLDWFLQKPGQSPQLLIYLASSRASGVPDRFSGSDSGTDFTLKISRVEAEDVGVYYCMQALQTPITFGQGTRLEIK", "Kd [µM]": 0.705}
{"binder": "32A10.HL scFv-Fc protein (Fc fusion, HL: heavy-chain variable domain at the N-terminus; not shown: human IgG1 Fc moiety) QVTLKESGPVLVKPTETLTLTCTVSGFSLSNARMGVSWIRQPPGKALEWLAHIFSTDEKSIRRSLRSRLTLSKDTSKSQVVLTMTNMDPVDTATYFCARDSSNYEGYFDYWGQGTLVTVSSGGGGSGGGGSGGGGSGGGGSEVVMTQSPATLSVSPGERVTLSCRASQSVSSNFAWYQQRPGQAPRLLLYGATTRATGLPGRFSGSGSGTENILTISSLQSEDFAIYFCQQYKDWPFTFGPGSKVDIK", "Kd [µM]": 0.0245}
{"binder": "32A10.LH scFv-Fc protein (Fc fusion, LH: light-chain variable domain at the N-terminus; not shown: human IgG1 Fc moiety) EVVMTQSPATLSVSPGERVTLSCRASQSVSSNFAWYQQRPGQAPRLLLYGATTRATGLPGRFSGSGSGTENILTISSLQSEDFAIYFCQQYKDWPFTFGPGSKVDIKGGGGSGGGGSGGGGSGGGGSQVTLKESGPVLVKPTETLTLTCTVSGFSLSNARMGVSWIRQPPGKALEWLAHIFSTDEKSIRRSLRSRLTLSKDTSKSQVVLTMTNMDPVDTATYFCARDSSNYEGYFDYWGQGTLVTVSS", "Kd [µM]": 0.0298}
